- Test system: Mycobacterium tuberculosis H37Rv
- Assay Comment: Anti-tuberculosis activity test in vitro (Microplate Alamar Blue Assay, MABA)
- Type: cell-based
- Measurement Setup: H37RV
Overview of reported MIC across a group of molecules:
Form entry: value (mg/L) — number only.

1) NC[C@@H]1OC(=O)N2c3cc(F)c(N4[C@@H]5CC[C@H]4CSC5)cc3OC[C@@H]12 ... 0.609

Requested read-out MIC, target or system Mycobacterium tuberculosis H37Rv, entry O=C(NC[C@@H]1OC(=O)N2c3cc(F)c(N4[C@@H]5CC[C@H]4CSC5)cc3OC[C@@H]12)C1CC1
0.976

Requested read-out MIC, target or system Mycobacterium tuberculosis H37Rv, entry CC(=O)NC[C@@H]1OC(=O)N2c3cc(F)c(N4[C@@H]5CC[C@H]4CSC5)cc3OC[C@@H]12
0.918

Requested read-out MIC, target or system Mycobacterium tuberculosis H37Rv, entry O=C(NC[C@@H]1OC(=O)N2c3cc(F)c(N4[C@@H]5CC[C@H]4CSC5)cc3OC[C@@H]12)C1CCC1
0.974
